Target: Vitronectin receptor αVβ3 (Homo sapiens, UniProt P05106+P06756)
Sequence (P06756 31-889 limits assumed): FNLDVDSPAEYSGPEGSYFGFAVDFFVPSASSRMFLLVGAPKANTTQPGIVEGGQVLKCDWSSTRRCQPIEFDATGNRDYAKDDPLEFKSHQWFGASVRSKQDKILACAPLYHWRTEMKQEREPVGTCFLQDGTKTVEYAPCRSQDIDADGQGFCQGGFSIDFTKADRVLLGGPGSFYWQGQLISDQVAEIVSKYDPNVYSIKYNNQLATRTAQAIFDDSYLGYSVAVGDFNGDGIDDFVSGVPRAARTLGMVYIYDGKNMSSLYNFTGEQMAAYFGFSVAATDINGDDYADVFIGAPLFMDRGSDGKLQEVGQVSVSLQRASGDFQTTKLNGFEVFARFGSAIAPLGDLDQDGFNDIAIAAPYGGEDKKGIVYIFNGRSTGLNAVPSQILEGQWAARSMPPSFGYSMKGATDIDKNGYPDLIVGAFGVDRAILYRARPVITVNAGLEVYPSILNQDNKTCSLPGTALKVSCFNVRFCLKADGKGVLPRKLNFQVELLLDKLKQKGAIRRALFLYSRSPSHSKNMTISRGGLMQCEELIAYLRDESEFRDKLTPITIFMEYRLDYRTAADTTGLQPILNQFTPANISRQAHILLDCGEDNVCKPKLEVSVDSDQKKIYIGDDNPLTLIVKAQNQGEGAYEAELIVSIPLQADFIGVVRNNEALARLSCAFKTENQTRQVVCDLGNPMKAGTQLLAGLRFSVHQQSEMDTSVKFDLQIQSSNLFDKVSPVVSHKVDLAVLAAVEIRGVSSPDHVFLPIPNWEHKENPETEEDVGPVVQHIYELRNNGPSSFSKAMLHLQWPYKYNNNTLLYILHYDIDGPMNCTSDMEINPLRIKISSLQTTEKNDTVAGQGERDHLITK
Sequence (P06756 891-1048 partner limits assumed): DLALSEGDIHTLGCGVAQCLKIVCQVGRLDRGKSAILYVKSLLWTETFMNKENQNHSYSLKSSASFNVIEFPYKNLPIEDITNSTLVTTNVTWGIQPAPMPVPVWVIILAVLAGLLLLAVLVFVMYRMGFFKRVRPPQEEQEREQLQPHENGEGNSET
Sequence (P05106 27-788): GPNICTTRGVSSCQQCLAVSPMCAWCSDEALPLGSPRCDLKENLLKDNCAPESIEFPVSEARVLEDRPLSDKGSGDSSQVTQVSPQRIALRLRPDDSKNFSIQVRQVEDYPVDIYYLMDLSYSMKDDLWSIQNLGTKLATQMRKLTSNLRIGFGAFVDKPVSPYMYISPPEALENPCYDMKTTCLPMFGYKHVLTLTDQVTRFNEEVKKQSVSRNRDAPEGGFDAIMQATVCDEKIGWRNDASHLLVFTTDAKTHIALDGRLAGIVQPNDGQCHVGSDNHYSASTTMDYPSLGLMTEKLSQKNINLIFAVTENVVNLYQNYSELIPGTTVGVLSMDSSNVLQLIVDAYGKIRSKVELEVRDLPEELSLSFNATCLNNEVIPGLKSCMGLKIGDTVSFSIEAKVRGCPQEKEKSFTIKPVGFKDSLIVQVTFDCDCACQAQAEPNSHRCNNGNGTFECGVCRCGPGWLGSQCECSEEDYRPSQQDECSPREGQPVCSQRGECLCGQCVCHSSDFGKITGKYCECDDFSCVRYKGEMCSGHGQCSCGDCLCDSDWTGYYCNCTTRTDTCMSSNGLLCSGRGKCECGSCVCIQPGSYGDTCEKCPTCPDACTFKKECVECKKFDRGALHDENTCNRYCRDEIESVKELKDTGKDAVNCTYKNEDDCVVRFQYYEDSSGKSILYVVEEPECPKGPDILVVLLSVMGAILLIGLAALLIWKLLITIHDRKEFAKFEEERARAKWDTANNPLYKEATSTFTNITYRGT
Test: Vitronectin Receptor αVβ3 Binding Assay
Details: read-out: VnR (IC50μM)
quantityMeasured: IC50 (µM)

COC(=O)N[C@@H](CNC(=O)c1ccc(OCCNc2ncccn2)cc1O)C(=O)O [Example 65] = 100
CC(C)(C)COC(=O)N[C@@H](CNC(=O)c1ccc(OCCNC(=O)NCc2ccccc2)cc1O)C(=O)O [Example 219] = 1.8
N=C(N)NCCOc1ccc(C(=O)NC[C@H](NC(=O)Cc2ccccc2)C(=O)O)c(O)c1 [Example 199] = 14.7
CCCCCCCCOC(=O)N[C@@H](CNC(=O)c1ccc(OCCNC(=O)NCc2cccnc2)cc1O)C(=O)O [Example 242] = 7.9

A: N=C(N)NCCOc1ccc(C(=O)NC[C@H](NC(=O)Nc2ccccc2)C(=O)O)c(O)c1 [Example 189]
B: O=C(Nc1ccccc1)N[C@@H](CNC(=O)c1ccc(OCCNC2=NCCCN2)cc1O)C(=O)O [Example 20]
C: O=C(NCCOc1ccc(C(=O)NC[C@H](NC(=O)OCC(Cl)(Cl)Cl)C(=O)O)c(O)c1)NCc1ccncc1 [Example 258]
[in] Arrange items by their IC50 values in increasing order. List the labels in the requested order.
[out] B, C, A

----------
Biological target: Vitronectin receptor αVβ3 (Homo sapiens, UniProt P05106+P06756)
Assay: Vitronectin Receptor αVβ3 Binding Assay
Conditions: read-out: VnR (IC50μM)
pIC50: −log10 of the molar value. Structures can show the parent of a compound that is named as a salt.
quantityMeasured: pIC50

Known results for compounds:
N=C(N)NCCOc1ccc(C(=O)NC[C@H](NC(=O)CC2CCCCC2)C(=O)O)c(O)c1 = 4.88
N=C(N)NCCOc1ccc(C(=O)NC(CC(=O)O)c2ccccc2)c(O)c1 (stereo not drawn) [Example 280, hydrochloride] = 4.91
O=C(NCCOc1ccc(C(=O)NC[C@H](NC(=O)OCc2ccccc2)C(=O)O)c(O)c1)NCc1ccccc1Cl = 4.99
O=C(N[C@@H](CNC(=O)c1ccc(OCCNC2=NCCCCC2)cc1O)C(=O)O)OCC(Cl)(Cl)Cl = 5.62
Cc1cccc(C(=O)N[C@@H](CNC(=O)c2ccc(OCCNC(=N)N)cc2O)C(=O)O)c1C = 5.64

I: O=C(NC[C@H](NC(=O)c1ccccc1Br)C(=O)O)c1ccc(OCCNC2=NCCN2)cc1O
II: CCCCCCCCOC(=O)N[C@@H](CNC(=O)c1ccc(OCCNC2=NCCCN2)cc1O)C(=O)O
III: CCCOC(=O)N[C@@H](CNC(=O)c1ccc(OCCNc2ncccn2)cc1O)C(=O)O
IV: COC(=O)N[C@@H](CNC(=O)c1ccc(OCCNC2=NCCN2)cc1O)C(=O)O
[in] Could you please order the items by pIC50, going from the lowest number to the highest? List labels; respect the requested ordering.
[out] III, IV, I, II
(III: 4.00, IV: 6.11, I: 6.44, II: 6.96)

1: N=C(N)NCCOc1ccc(C(=O)NC(CC(=O)O)c2cccnc2)c(O)c1 (stereo not drawn)
2: CCCCOC(=O)N[C@@H](CNC(=O)c1ccc(OCCNc2ncccn2)cc1O)C(=O)O
3: CCOC(=O)N[C@@H](CNC(=O)c1ccc(OCCNC2=NCCN2)cc1O)C(=O)O
4: O=C(Nc1ccccc1-c1ccccc1)N[C@@H](CNC(=O)c1ccc(OCCNC2=NCCN2)cc1O)C(=O)O
[in] Let's sort these by pIC50, smallest first. Go ahead? Put the labels in the requested order and write them down.
[out] 2, 1, 4, 3

----------
Target: Vitronectin receptor αVβ3 (Homo sapiens, UniProt P05106+P06756)
Assay: Vitronectin Receptor αVβ3 Binding Assay
Details: read-out: VnR (IC50μM)
pIC50: −log10 of the molar value.
Catalogue of compounds with associated pIC50

Recorded pIC50, per entry:
N=C(N)NCCOc1ccc(C(=O)NC[C@H](NC(=O)Nc2ccc(OC(F)(F)F)cc2)C(=O)O)c(O)c1 = < 6.00
CCCCCCOC(=O)N[C@@H](CNC(=O)c1ccc(OCCNC2=NCCCN2)cc1O)C(=O)O = < 6.00

Moving on to another compound below.
Entry under test: O=C(NCCc1ccccc1)N[C@@H](CNC(=O)c1ccc(OCCNc2ncccn2)cc1O)C(=O)O . Its pIC50 was < 6.00

----------
Target: Vitronectin receptor αVβ3 (Homo sapiens, UniProt P05106+P06756)
Construct: expressed in transfected cells; host or cells: 512P5 cells (plasma membrane preparation)
Assay: Vitronectin Receptor αVβ3 Binding Assay
Conditions: read-out: VnR (IC50μM)
quantityMeasured: IC50 (µM)

Use the examples below as a reference point.
Cc1cccc(C(=O)N[C@@H](CNC(=O)c2ccc(OCCNC3=NCCN3)cc2O)C(=O)O)c1C = 0.0978
N=C(N)NCCOc1ccc(C(=O)NC[C@H](NC(=O)c2ccccc2Br)C(=O)O)c(O)c1 = 13.1
C#CCOC(=O)N[C@@H](CNC(=O)c1ccc(OCCNC(=O)NCc2ccccc2)cc1O)C(=O)O = 5.1

a: Cc1ccc(CNC(=O)NCCOc2ccc(C(=O)NC[C@H](NC(=O)OCc3ccccc3)C(=O)O)c(O)c2)cc1
b: O=C(CC1CCCCC1)N[C@@H](CNC(=O)c1ccc(OCCNC2=NCCN2)cc1O)C(=O)O
[in] Which one would you say has the larger IC50 value: a , or b ? // output: label of the selected item
[out] a
(a: 20.2 µM, b: 0.635 µM)

A: CCCCCCCCOC(=O)N[C@@H](CNC(=O)c1ccc(OCCNC(=O)NCc2ccncc2)cc1O)C(=O)O
B: O=C(NCCOc1ccc(C(=O)NC[C@H](NC(=O)OCc2ccccc2)C(=O)O)c(O)c1)NCc1ccc(Cl)cc1
C: O=C(NCc1ccccc1)N[C@@H](CNC(=O)c1ccc(OCCNC2=NCCN2)cc1O)C(=O)O
[in] Rank order required: IC50, descending. Form entry: labels listed in requested order.
[out] B, A, C

a: O=C(N[C@@H](CNC(=O)c1ccc(OCCNc2ncccn2)cc1O)C(=O)O)OCc1ccccc1
b: CC(C)(C)COC(=O)N[C@@H](CNC(=O)c1ccc(OCCNC2=NCCCN2)cc1O)C(=O)O
c: C#CCOC(=O)N[C@@H](CNC(=O)c1ccc(OCCNC(=N)N)cc1O)C(=O)O
d: O=C(NCCOc1ccc(C(=O)NC[C@H](NC(=O)OCc2ccccc2)C(=O)O)c(O)c1)NCc1ccccn1
[in] Would you mind ranking these compounds by ascending IC50? Give me the labels in the order the question wants.
[out] b, c, d, a

----------
Biological target: Vitronectin receptor αVβ3 (Homo sapiens, UniProt P05106+P06756)
Assay: Vitronectin Receptor αVβ3 Binding Assay
Details: read-out: VnR (IC50μM)
quantityMeasured: IC50 (µM)

Field: example entries. Status: answers known.
CCCCCCOC(=O)N[C@@H](CNC(=O)c1ccc(OCCNC(=O)NCc2cccnc2)cc1O)C(=O)O = 4.1
CC(C)OC(=O)N[C@@H](CNC(=O)c1ccc(OCCNC2=NCCN2)cc1O)C(=O)O = 0.079

1: C=CCOC(=O)N[C@@H](CNC(=O)c1ccc(OCCNc2ncccn2)cc1O)C(=O)O
2: CCCCOC(=O)N[C@@H](CNC(=O)c1ccc(OCCNC(=O)NCc2ccccc2)cc1O)C(=O)O
3: O=C(NCCOc1ccc(C(=O)NC[C@H](NC(=O)OCc2ccccc2)C(=O)O)c(O)c1)NCc1cccnc1
[in] Output the entries ranked by IC50 from maximum down to minimum. Please respond by ranking the labels in the order requested.
[out] 1, 2, 3
(1: 100 µM, 2: 6.7 µM, 3: 3.3 µM)

----------
Target: Vitronectin receptor αVβ3 (Homo sapiens, UniProt P05106+P06756)
Assay: Vitronectin Receptor αVβ3 Binding Assay
Settings: read-out: VnR (IC50μM)
pIC50: −log10 of the molar value.
quantityMeasured: pIC50

Below, 6 compounds whose answers are already recorded.
O=C(Nc1ccc(OC(F)(F)F)cc1)N[C@@H](CNC(=O)c1ccc(OCCNc2ncccn2)cc1O)C(=O)O [Example 85] = < 6.00
CC(C)COC(=O)N[C@@H](CNC(=O)c1ccc(OCCNC2=NCCN2)cc1O)C(=O)O [Example 107] = 6.89
CCCOC(=O)N[C@@H](CNC(=O)c1ccc(OCCNC(=N)N)cc1O)C(=O)O [Example 160] = 6.01
N=C(N)NCCOc1ccc(C(=O)NC[C@H](NC(=O)c2cccnc2)C(=O)O)c(O)c1 [Example 209] = < 6.00
N=C(N)NCCOc1ccc(C(=O)NC[C@H](NC(=O)NCCc2ccccc2)C(=O)O)c(O)c1 [Example 186] = 5.16
CCCCCCCCOC(=O)N[C@@H](CNC(=O)c1ccc(OCCNc2ncccn2)cc1O)C(=O)O [Example 58] = 4.00

# Cc1ccc(NC(=O)N[C@@H](CNC(=O)c2ccc(OCCNc3ncccn3)cc2O)C(=O)O)cc1 [Example 83] with Vitronectin receptor αVβ3 (Homo sapiens, UniProt P05106+P06756): pIC50 is < 6.00

The compound O=C(Nc1ccc(Cl)cc1)N[C@@H](CNC(=O)c1ccc(OCCNc2ncccn2)cc1O)C(=O)O [Example 86] on Vitronectin receptor αVβ3 (Homo sapiens, UniProt P05106+P06756): pIC50 was < 6.00

Record CC1(C)C(C(=O)N[C@@H](CNC(=O)c2ccc(OCCNC3=NCCN3)cc2O)C(=O)O)C1(C)C [Example 123] / Vitronectin receptor αVβ3 (Homo sapiens, UniProt P05106+P06756), pIC50 recorded as < 6.00

Observed pIC50 on Vitronectin receptor αVβ3 (Homo sapiens, UniProt P05106+P06756), entry O=C(Nc1ccccc1Br)N[C@@H](CNC(=O)c1ccc(OCCNc2ncccn2)cc1O)C(=O)O [Example 81] , equals < 6.00

Field pIC50 (system: Vitronectin receptor αVβ3 (Homo sapiens, UniProt P05106+P06756)) for entry O=C(N[C@@H](CNC(=O)c1ccc(OCCNC2=NCCN2)cc1O)C(=O)O)c1ccc(Cl)cc1 [Example 134] = < 6.00
